Origin of the recorded values: paper PMC6500773

Molecular target: hSERT (Homo sapiens, UniProt P31645)
Sequence (P31645 whole entry): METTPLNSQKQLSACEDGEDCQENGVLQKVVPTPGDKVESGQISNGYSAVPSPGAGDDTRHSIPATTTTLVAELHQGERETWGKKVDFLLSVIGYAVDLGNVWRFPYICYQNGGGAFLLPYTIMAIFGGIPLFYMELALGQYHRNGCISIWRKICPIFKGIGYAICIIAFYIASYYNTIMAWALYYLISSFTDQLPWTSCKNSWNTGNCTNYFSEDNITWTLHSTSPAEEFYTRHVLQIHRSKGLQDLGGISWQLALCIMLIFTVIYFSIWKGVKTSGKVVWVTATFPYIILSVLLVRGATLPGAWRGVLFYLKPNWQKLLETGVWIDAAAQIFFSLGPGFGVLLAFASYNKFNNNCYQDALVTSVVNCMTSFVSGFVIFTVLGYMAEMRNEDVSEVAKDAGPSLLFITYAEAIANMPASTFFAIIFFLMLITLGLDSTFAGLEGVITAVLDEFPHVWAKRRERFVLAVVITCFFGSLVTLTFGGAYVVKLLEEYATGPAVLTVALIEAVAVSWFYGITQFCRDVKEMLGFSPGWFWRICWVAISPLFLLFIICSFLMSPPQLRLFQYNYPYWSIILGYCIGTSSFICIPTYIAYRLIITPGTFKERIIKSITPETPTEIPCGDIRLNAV
Experiment: Inhibition of [3H]5-HT uptake by HEK-hSERT cells
value-kind: pIC50
# pIC50 is unitless: minus log10 of the molar concentration; print number only

The cases that follow already have their pIC50 on record.
>>> result("CCCCC(C(=O)c1ccc(F)cc1)N1CCCC1 (stereo not drawn)")
5.04
>>> result("CN[C@@H](C)Cc1ccccc1 [METH, methamphetamine, reference compound]")
5.03
>>> result("CNC(C)Cc1ccc2c(c1)CCO2 (stereo not drawn)")
6.95

**Query** Requested read-out pIC50, target or system hSERT (Homo sapiens, UniProt P31645), entry CCCCC(C(=O)c1ccc(C)cc1)N1CCCC1 (stereo not drawn)
**Result** 5.80

**Query** Field: pIC50 (hSERT (Homo sapiens, UniProt P31645)). Entry: CNC(COC)C(=O)c1ccc(C)cc1 (stereo not drawn)
**Result** 5.27

**Query** Recorded pIC50 for CC(C(=O)c1ccc(Cl)cc1)N1CCCC1 (stereo not drawn) with hSERT (Homo sapiens, UniProt P31645), please?
**Result** 5.19

**Query** Given the entry CCCC(Cc1ccccc1)N1CCCC1 (stereo not drawn) [Prolintane, 1-[1-(phenylmethyl)butyl]-pyrrolidine] , what pIC50 was observed with hSERT (Homo sapiens, UniProt P31645)?
**Result** 5.95

**Query** Value wanted: pIC50 (hSERT (Homo sapiens, UniProt P31645)) of entry CCCCC(C(=O)c1ccc2c(c1)OCO2)N1CCCC1 (stereo not drawn)
**Result** 5.87
